System: P388 leukemia ip, CD2F1 mice, survival T/C
assay.comment: NCI In Vivo Anticancer Drug Screen. Data for tumor model P388 Leukemia (intraperitoneal) in CD2F1 (CDF1) mice
study.conditions: endpoint: median survival time; dose: 12.5 mg/kg/injection; schedule: Q01DX009 (ip); vehicle: saline with Tween-80
Description: The antitumor activity of compounds was measured in mice bearing transplantable tumors. Survival or tumor size were measured and the results are expressed as the measurement made in the treated group (T) divided by the measurement made in the vehicle treated control group (C). The tumor model used in this assay is P388 Leukemia (intraperitoneal) in CD2F1 (CDF1) mice
Inconclusive results and toxic doses are left out. Rule for the calls: active = survival T/C of 150% or more; inactive = T/C below 125% in these data.
Allowed answers: Yes for active, No for inactive

* O=C(CC(=O)c1ccccc1F)Nc1ccc([N+](=O)[O-])cc1 | No
* COn1nnc2c([N+](=O)[O-])cccc21 | No
* CN(C)C1CCc2ccccc2C1OC(=O)/C=C/c1ccccc1 (centres undefined) | No
* NC(=S)N/N=C\c1nccc2c(N)cccc12 | Yes
* O=c1c2cnccc2cc2n1CCc1c-2[nH]c2ccccc12 | No

Q: Answer briefly: the call reported for c1ccc(C2CN3CCSC3=N2)cc1 (centres undefined) in this assay.
Ans: No

Q: Answer briefly: the call reported for O=C(CCCN1CCC(C(O)c2ccc(F)cc2)CC1)c1ccc(F)cc1 (centres undefined) in this assay.
Ans: No

Q: Answer briefly: the call reported for O=C1C(Cl)=CC(=NS(=O)(=O)c2ccccc2)C=C1Cl in this assay.
Ans: No

----------
System: P388 leukemia ip, CD2F1 mice, survival T/C
assay.comment: NCI In Vivo Anticancer Drug Screen. Data for tumor model P388 Leukemia (intraperitoneal) in CD2F1 (CDF1) mice
study.conditions: endpoint: median survival time; dose: 200.0 mg/kg/injection; schedule: Q01DX009 (ip); vehicle: saline with Tween-80; higher = longer survival
Toxic doses and inconclusive results are not listed.
Reported T/C values are given for each entry in this list.

Solved cases below.
• C[Si](C)(CCl)N[Si](C)(C)CCl = 96 % of control
• CC(C)(c1ccc(OCC2CO2)cc1)c1ccc(OCC2CO2)cc1 (configuration not stated) = 109 % of control
• O=C1NC(=O)C2(CCCc3c([N+](=O)[O-])cccc32)N1 (configuration not stated) = 90 % of control
• CCCCOP(O)(=S)OCCCC.[Gd] = 86 % of control
• N#CCC1(c2ccccc2)CCCCC1 = 107 % of control
• CC12OC3(C)c4ccccc4OP3(c3ccccc3)(Oc3ccccc31)O2 (configuration not stated) = 88 % of control

# evaluate next
Q: State, in one line, measured T/C of OCC1C2CCCC12 (configuration not stated)
Ans: 104 % of control

----------
Test system: P388 leukemia ip, CD2F1 mice, survival T/C
assay.comment: NCI In Vivo Anticancer Drug Screen. Data for tumor model P388 Leukemia (intraperitoneal) in CD2F1 (CDF1) mice
study.conditions: endpoint: median survival time; dose: 60.0 mg/kg/injection; schedule: Q01DX005 (ip); vehicle: saline with Tween-80; higher = longer survival
Toxic doses and inconclusive results are not listed.
measurement.type: T/C

- C[C@@]12CCCC[C@@H]1N(CCN1CCCCC1)c1ccccc12: 95 % of control
- COC(=O)c1nnn(-c2ccc(S(N)(=O)=O)cc2)c1C(=O)c1ccc(Cl)c(Cl)c1: 109 % of control
- Cc1ccc2c3c(c(=O)oc2c1)[C@H](C)C[C@@](C)(CO)O3: 113 % of control
- Nc1nc(N)c2[nH]c(CNc3ccc(C(=O)O)cc3)nc2n1: 89 % of control
- c1ccc(-c2nc3n(n2)CCC(c2ccccc2)S3)cc1 (stereo unspecified): 92 % of control
- O=C(Nc1ccc(Cl)cc1)Nc1nnc(-c2ccc(-c3nnc(NC(=O)Nc4ccc(Cl)cc4)o3)cc2)o1: 104 % of control
- CCOC(=O)C1=C(C)Oc2cc3c(cc2C1c1cc(OC)c(OC)c(OC)c1)OCO3 (stereo unspecified): 97 % of control
- CCOC(=O)C(C#N)C(=N)C1CC(C)(C)OC1=O (stereo unspecified): 100 % of control
- COc1ccc(C(C#N)C(=O)C(=O)Nc2ccc(C)cc2C)cc1OC (stereo unspecified): 95 % of control
- Cc1nc2cc(N)c(Cl)cc2[nH]1: 104 % of control

# evaluate next
Q: Give T/C for this entry on P388 leukemia ip, CD2F1 mice, survival T/C: CCOC(=O)/C(C#N)=C/Nc1[nH]c(=O)c(C#N)c(-c2ccc(Cl)cc2)c1SC
Ans: 110 % of control
